method: Apparent oral clearance in CD-1 mouse at 30 mg/kg measured for 480 mins by LC-ESI-MS/MS analysis
Format: ADME, organism-based
run-conditions: in vivo
value-type: CL/F (mL/min/kg)
Numbers only, in mL/min/kg.

Consider the compound `O=S(=O)(c1ccccc1)n1ccc2c(OCCNCC3CCCCC3)cccc21` and give its measured CL/F.
189

* * *

subject-of-test: Cholinesterase (Homo sapiens, UniProt P06276)
Sequence (P06276 whole entry): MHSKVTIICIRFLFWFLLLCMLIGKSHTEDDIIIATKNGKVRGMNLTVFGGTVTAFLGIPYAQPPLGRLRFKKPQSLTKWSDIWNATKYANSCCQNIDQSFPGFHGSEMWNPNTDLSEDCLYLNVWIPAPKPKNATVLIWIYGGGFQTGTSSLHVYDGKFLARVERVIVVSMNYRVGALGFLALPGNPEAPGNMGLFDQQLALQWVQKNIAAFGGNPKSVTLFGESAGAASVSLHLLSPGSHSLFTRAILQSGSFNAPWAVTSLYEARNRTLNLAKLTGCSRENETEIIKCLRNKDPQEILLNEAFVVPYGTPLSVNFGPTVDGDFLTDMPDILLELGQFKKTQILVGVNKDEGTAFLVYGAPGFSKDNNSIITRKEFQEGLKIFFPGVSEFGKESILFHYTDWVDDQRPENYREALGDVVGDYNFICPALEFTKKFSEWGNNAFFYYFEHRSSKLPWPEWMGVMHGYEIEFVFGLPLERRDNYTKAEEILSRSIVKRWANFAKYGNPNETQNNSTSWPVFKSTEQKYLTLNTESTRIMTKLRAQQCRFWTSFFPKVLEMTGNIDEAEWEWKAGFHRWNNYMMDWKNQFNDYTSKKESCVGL
method: Inhibition of BuChE in human plasma using BTC as substrate at 10 uM preincubated with enzyme for 5 mins followed by substrate addition for 5 mins by Ellman's method relative to control
Assay type: cell-free
run-conditions: time 10.0 min
Could you please report measured inhibition for the items listed next?

Consider the molecule `CCOc1cccc(CNCCOc2cccc3c2ccn3S(=O)(=O)c2ccccc2)c1` and give its measured inhibition.
< 50%

What do you have for CC(C)(C)OC(=O)N1CCCC(CNCCOc2cccc3c2CCN3Cc2ccccc2)C1 (stereo not given) ?
> 50%

What do you have for `O=S(=O)(c1ccccc1)n1ccc2c(OCCNCc3ccc(Cl)cc3)cccc21` ?
< 50%

What do you have for `CN(C)c1ccc(CNCCOc2cccc3c2ccn3S(=O)(=O)c2ccccc2)cc1` ?
< 50%

# next molecule below
Consider the molecule `CN(C)c1cccc(CNCCOc2cccc3c2ccn3S(=O)(=O)c2ccccc2)c1` and give its measured inhibition.
< 50%

The reported measurements were obtained from ChEMBL document CHEMBL4828761.
